Test system: U-251
procedureText: NCI tumour cell line growth inhibition, 48 h
Activity calls are given as the source filed them. No stated cut-off is given here; in the data, active = GI50 up to about 1.1 µM and inactive = higher.
// one of true (active), false (inactive), no free text

Examples from the recorded data:
compound	qualitativeLabel
CCOc1ccc(NC(=O)/C(=C\c2ccc(C)cc2)C(C)=O)cc1	false
O=CC(O)C(O)C(O)C(O)COP(=O)(O)Cc1ccccc1 (stereo not given)	false
COCOc1c(C(O[Si](C)(C)C(C)(C)C)c2cnc(Sc3ccccc3)n2C)ccc(OC)c1OC (stereo not given)	false
NCCCN1CCN(CC(=O)O)CCN(CCCN)CCN(CC(=O)O)CC1	false
O=[N+]([O-])c1cccc(-c2ncnc(-c3cccc([N+](=O)[O-])c3)n2)c1	false

-- ask Tell me the recorded outcome of this test for Nc1ncnc2c1ncn2C1OC(CO)CC1O (stereo not given) .
-- reply false

-- ask Kindly provide the recorded test outcome for the following compound: N#Cc1cccc(/C=N/C23CC4CC(CC(C4)C2)C3)c1
-- reply false

* * *

Test system: LOX IMVI
procedureText: NCI tumour cell line growth inhibition, 48 h
The source made the active and inactive calls. Rule as the data show it: active = GI50 up to about 1.1 µM and inactive = higher.
resultType: GI50

These recorded examples may help you get a feel for the data.
compound	system	GI50
CCCCCC[C@H]1C(=O)O[C@H](C)[C@H](NC(=O)c2cccc(NC=O)c2OC)C(=O)O[C@@H](C)[C@@H]1OC(=O)C(C)CC.CCCCCC[C@H]1C(=O)O[C@H](C)[C@H](NC(=O)c2cccc(NC=O)c2OC)C(=O)O[C@@H](C)[C@@H]1OC(=O)CC(C)C (stereo partly drawn)	LOX IMVI	25.9 µM (inactive)
C/C(=C\c1ccccc1)C(O)C(=O)c1nc2ccc(Cl)cc2nc1O (stereo not drawn)	LOX IMVI	> 100 µM (inactive)
COC1=CC23C=CC1[C@@H](c1ccccc1)C2=C(C)C(=O)N3C(=O)NC1CCCCC1 (stereo partly drawn)	LOX IMVI	17 µM (inactive)
CC1(C)[C@@H](Cn2nnc3c(N)ncnc32)CC[C@@]1(C)CO	LOX IMVI	> 100 µM (inactive)
COP(=O)(O)C(N)Cc1c[nH]c2ccccc12 (stereo not drawn)	LOX IMVI	> 100 µM (inactive)
C[N+](C)(C)CC1CCc2ccccc2C1=O (stereo not drawn)	LOX IMVI	18.7 µM (inactive)
O=C1C(=O)N(c2cc(Cl)ccc2Cl)C(=O)C(=O)C1c1nc2ccccc2o1	LOX IMVI	> 100 µM (inactive)
COP(=O)(OC)/C(=C\C1=CN(C(c2ccccc2)(c2ccccc2)c2ccccc2)CN1)NC=O	LOX IMVI	12.8 µM (inactive)
O=C(O)c1cc2cc(OCc3ccccc3)ccc2[nH]1	LOX IMVI	> 100 µM (inactive)
COC(OC)c1cccc2c1C(=O)CCC1(O)c3ccccc3C1C2 (stereo not drawn)	LOX IMVI	> 100 µM (inactive)

-- ask Query GI50 for CO[P@]1(=O)O[C@@H](c2ccccc2)[C@H](O)[C@]1(O)c1ccccc1
-- reply > 100 µM (inactive)

-- ask Return reported GI50. Input compound: Cc1ccc(/N=N/c2c(O)ccc3cc(S(=O)(=O)O)ccc23)cc1
-- reply 18.2 µM (inactive)

-- ask Supply measured GI50 of Cn1c(O)c(C2=Nc3ccccc3C2=O)c2ccccc21 in your reply.
-- reply > 100 µM (inactive)

-- ask Identify GI50 associated with the compound O=c1c2cc(-c3ccccc3)sc2nc2n1N=C(c1ccccc1)CS2
-- reply 27.3 µM (inactive)

-- ask Please look at this compound and report its GI50: CCCCCCCCCCOC(=O)c1cc[n+](C)cc1
-- reply 17.6 µM (inactive)
